- target: rat α1B+α2b+β1b channels (Rattus norvegicus)
- Sequence (Q02294 whole entry): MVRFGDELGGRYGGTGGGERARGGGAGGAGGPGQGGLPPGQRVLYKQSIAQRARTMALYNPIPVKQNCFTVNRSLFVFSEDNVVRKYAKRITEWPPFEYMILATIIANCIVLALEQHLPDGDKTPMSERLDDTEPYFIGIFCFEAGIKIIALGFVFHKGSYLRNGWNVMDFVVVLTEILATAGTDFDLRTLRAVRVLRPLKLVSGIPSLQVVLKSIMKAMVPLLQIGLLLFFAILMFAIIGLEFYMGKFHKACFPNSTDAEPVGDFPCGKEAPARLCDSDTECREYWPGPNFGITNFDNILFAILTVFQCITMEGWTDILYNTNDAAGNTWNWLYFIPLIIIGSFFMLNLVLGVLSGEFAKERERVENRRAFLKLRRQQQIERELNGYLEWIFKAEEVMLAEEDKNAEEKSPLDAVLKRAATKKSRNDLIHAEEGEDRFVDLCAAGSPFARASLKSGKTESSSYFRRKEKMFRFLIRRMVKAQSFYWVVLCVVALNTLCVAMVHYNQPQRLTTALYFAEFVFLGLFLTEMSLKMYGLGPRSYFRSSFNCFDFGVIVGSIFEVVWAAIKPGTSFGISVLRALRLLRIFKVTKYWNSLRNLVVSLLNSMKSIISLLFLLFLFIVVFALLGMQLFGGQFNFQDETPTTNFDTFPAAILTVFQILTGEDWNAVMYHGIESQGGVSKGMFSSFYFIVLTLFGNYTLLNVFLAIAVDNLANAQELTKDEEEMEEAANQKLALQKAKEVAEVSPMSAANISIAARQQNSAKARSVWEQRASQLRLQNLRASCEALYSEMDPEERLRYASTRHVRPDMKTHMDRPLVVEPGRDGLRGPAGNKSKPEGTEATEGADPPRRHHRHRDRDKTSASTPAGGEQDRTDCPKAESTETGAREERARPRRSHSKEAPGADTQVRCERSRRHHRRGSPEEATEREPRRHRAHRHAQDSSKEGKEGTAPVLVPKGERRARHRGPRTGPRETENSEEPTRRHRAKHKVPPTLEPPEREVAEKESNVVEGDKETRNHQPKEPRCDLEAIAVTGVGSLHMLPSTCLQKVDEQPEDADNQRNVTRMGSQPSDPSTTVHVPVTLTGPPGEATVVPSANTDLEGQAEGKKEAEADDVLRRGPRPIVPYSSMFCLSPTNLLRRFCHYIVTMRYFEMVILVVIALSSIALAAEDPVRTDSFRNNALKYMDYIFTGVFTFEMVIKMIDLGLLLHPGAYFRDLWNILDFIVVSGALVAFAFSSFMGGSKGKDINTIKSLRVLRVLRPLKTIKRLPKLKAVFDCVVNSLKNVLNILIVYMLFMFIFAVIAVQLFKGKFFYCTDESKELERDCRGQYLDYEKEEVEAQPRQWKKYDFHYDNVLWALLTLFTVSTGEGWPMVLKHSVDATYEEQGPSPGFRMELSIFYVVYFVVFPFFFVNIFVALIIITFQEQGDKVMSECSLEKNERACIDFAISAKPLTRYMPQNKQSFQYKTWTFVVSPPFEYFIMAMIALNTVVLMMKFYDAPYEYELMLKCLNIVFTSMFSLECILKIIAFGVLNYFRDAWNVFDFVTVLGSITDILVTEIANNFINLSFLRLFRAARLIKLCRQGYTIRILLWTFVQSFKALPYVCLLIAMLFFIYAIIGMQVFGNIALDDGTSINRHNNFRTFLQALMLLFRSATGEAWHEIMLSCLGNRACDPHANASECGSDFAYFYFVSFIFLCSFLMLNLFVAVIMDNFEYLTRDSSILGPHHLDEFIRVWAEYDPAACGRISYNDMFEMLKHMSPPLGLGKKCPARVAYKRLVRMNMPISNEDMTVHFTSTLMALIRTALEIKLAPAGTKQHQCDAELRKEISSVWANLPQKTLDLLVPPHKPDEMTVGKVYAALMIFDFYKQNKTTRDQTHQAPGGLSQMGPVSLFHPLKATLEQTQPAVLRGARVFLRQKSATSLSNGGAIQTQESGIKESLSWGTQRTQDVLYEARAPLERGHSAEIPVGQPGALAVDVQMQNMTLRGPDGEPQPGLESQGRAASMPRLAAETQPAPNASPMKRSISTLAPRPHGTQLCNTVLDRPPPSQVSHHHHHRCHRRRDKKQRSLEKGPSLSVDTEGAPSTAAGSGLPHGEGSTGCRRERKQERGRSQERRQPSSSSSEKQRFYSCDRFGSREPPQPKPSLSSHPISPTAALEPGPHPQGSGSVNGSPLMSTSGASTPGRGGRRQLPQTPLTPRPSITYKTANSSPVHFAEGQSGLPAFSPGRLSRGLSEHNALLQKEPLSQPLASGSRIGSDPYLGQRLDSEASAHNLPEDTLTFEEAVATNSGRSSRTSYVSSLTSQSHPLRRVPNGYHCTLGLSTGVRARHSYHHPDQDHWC
- Sequence (P54290 25-944 partner limits assumed): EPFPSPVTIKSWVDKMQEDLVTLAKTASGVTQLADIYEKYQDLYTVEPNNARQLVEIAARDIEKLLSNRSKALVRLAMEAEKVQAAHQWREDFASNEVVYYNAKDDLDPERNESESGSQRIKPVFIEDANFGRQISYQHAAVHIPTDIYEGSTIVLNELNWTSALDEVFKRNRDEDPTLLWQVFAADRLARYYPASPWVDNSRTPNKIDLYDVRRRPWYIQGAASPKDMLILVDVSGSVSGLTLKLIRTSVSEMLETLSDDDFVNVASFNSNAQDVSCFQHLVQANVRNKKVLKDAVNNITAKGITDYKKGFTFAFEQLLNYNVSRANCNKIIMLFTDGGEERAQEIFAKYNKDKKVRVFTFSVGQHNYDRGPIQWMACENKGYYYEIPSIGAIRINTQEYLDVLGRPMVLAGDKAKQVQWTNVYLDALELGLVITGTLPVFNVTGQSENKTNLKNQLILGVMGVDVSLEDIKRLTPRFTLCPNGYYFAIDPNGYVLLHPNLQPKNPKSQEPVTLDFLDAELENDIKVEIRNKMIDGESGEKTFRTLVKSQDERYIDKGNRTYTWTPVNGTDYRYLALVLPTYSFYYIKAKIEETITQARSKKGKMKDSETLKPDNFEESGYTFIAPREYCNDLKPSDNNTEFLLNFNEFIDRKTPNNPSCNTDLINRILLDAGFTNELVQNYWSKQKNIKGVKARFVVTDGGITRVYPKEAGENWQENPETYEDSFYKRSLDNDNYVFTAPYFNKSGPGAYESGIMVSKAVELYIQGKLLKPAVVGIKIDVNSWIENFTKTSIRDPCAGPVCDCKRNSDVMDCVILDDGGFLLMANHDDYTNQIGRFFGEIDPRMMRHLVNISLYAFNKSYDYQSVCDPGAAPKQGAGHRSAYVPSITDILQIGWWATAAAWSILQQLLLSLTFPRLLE
- Sequence (P54290 945-1091 partner limits assumed): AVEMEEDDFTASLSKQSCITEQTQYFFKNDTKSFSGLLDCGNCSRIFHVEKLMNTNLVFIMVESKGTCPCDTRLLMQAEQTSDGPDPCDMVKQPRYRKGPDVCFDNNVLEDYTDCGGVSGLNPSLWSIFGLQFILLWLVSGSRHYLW
- Sequence (P54283 whole entry partner): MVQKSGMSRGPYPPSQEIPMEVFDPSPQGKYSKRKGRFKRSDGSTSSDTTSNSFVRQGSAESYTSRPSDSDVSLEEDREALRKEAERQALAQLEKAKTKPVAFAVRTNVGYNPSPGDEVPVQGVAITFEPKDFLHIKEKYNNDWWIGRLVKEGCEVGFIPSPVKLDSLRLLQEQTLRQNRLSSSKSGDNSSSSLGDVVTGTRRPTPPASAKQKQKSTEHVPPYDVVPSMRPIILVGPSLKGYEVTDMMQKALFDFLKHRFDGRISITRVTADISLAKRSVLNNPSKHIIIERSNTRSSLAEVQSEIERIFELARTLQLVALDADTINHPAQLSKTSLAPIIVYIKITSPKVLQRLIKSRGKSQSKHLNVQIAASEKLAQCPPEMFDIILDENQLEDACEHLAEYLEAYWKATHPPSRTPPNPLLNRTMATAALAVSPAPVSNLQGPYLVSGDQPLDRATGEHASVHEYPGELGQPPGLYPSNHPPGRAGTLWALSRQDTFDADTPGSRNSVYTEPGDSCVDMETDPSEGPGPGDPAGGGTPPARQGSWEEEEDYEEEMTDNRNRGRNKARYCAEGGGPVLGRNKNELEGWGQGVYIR
- experiment: N-type calcium channel blocking activity, whole cell patch recordings
- condition: N-type calcium channels expressed in human embryonic kidney cells; 5 mM barium as charge carrier
reported property: IC50 (µM)
Answers are plain numbers, in µM.

Check out these entries, answers already filled in.
molecule=O=C(C(C1CCCCC1)C1CCCCC1)N1CCN(Cc2ccccc2)CC1 target="rat α1B+α2b+β1b channels (Rattus norvegicus)" endpoint_result=14.2
molecule="C(=Cc1ccccc1)CN1CCN(CCCCCCC(c2ccccc2)C2CCCCC2)CC1 (centres unmarked)" target="rat α1B+α2b+β1b channels (Rattus norvegicus)" endpoint_result=3.2
molecule=O=C(C(C1CCCCC1)C1CCCCC1)N1CCN(CC=Cc2ccccc2)CC1 target="rat α1B+α2b+β1b channels (Rattus norvegicus)" endpoint_result=5.9
molecule="C(=Cc1ccccc1)CN1CCN(CCCCCC(c2ccccc2)C2CCCCC2)CC1 (centres unmarked)" target="rat α1B+α2b+β1b channels (Rattus norvegicus)" endpoint_result=5.9

Return reported IC50 values for all items listed beneath this line.
1. O=C(CCCCCC(c1ccccc1)C1CCCCC1)N1CCN(CC=Cc2ccccc2)CC1 (centres unmarked)
2. C(=Cc1ccccc1)CN1CCN(CC(C2CCCCC2)C2CCCCC2)CC1

Reply:
1. 12.2
2. 10.2
